Hey, just so you know, these numbers are from PubChem BioAssay (NCI).

# Tested on: MCF7 breast
# ASSAY_PROTOCOL: NCI-60 one-dose screen, 48 h
# RUN_CONDITIONS: 10 µM unless noted
# Method: Growth inhibition of the MCF7 human tumor cell line is measured as a screen for anti-cancer activity. Cells are grown in 96 well plates and exposed to the test compound for 48 hours. Compounds are tested at a single concentration, which is 10^-5 M for most compounds. The reported endpoint is percent growth (GI% or GIPRCNT), where numbers from 0 - 100% represent growth inhibition, and numbers from -100% - 0 represent cell death. For example, a value of 40 represents 60% growth inhibition. […]
This is part of a sample that, as a whole, favours compounds with a hit. Of some 83,000 tested, about 20% had one in any assay. Activity calls are given as the source filed them. How the source made its calls: active means growth percent below 10; inactive means the rest.
Result category, one only: active, inactive

As a guide, the following entries are already answered.
## Task Hello, I am checking results. What call was entered for N#C/C(=C\c1ccc(-c2ccc(Cl)cc2)o1)c1nc(-c2ccco2)cs1 ?
## Result inactive

## Task Hello, I am checking results. What call was entered for C#CCN=C[C@]12CC[C@@H](C(=C)C)[C@@H]1[C@H]1CC[C@@H]3[C@@]4(C)CCC(=O)C(C)(C)[C@@H]4CC[C@@]3(C)[C@]1(C)CC2 ?
## Result inactive

## Task Hello, I am checking results. What call was entered for CN1CCN(CCOc2ccc(-c3cnc4c(-c5ccccc5F)cnn4c3)cc2)CC1 ?
## Result inactive

## Task Hello, I am checking results. What call was entered for CC(C)(C)c1ccc(OP(=S)(N/N=C/c2ccccc2O)Oc2ccc(C(C)(C)C)cc2)cc1 ?
## Result inactive

## Task Hello, I am checking results. What call was entered for C=C(C)[C@@H]1CC[C@]2(C(=O)N3CCN(CC)CC3)CC[C@]3(C)[C@H](CC[C@@H]4[C@@](C)(CCC(=O)N5CCN(CC)CC5)[C@H](C(=C)C)CC[C@]43C)[C@@H]12 ?
## Result inactive

## Task Hello, I am checking results. What call was entered for Cc1cc(Cl)nc(N(CCNc2ccnc3cc(Cl)ccc23)Cc2ccco2)n1 ?
## Result inactive

## Task Hello, I am checking results. What call was entered for CCSc1sc(-c2ccc(C)cc2)nc1[P+](c1ccccc1)(c1ccccc1)c1ccccc1 ?
## Result active

For the next question, use this compound.
## Task Hello, I am checking results. What call was entered for Nc1ccc(Br)cn1 ?
## Result inactive

* * *

# System: NCI-H322M lung
# ASSAY_PROTOCOL: NCI-60 one-dose screen, 48 h
# RUN_CONDITIONS: 10 µM unless noted
# Procedure: Growth inhibition of the NCI-H322M human Non-Small Cell Lung tumor cell line is measured as a screen for anti-cancer activity. Cells are grown in 96 well plates and exposed to the test compound for 48 hours. Compounds are tested at a single concentration, which is 10^-5 M for most compounds. The reported endpoint is percent growth (GI% or GIPRCNT), where numbers from 0 - 100% represent growth inhibition, and numbers from -100% - 0 represent cell death. […]
About 83,000 compounds went through this panel and 20% of them were active in at least one assay; those are over-represented in the sample as a whole. The source made the active and inactive calls. Rule for the calls: active = growth percent below 10; inactive = the rest.
Result category, one only: yes (1) (active), no (0) (inactive)

As a guide, the following entries are already answered.
## Task Hello, I am checking results. What call was entered for Brc1ccc(Cn2nnnc2-c2ccn(-c3ccccc3)n2)cc1 ?
## Result no (0)

## Task Hello, I am checking results. What call was entered for COc1ccc(CCN2C(=O)C(C)(C)SC2=S)cc1OC ?
## Result no (0)

## Task Hello, I am checking results. What call was entered for COc1cccc(NC(=O)c2sc3nc4c(cc3c2N)C(=O)CCC4)c1 ?
## Result no (0)

## Task Hello, I am checking results. What call was entered for CCCCCCCN(CCCCCCC)C(=N)c1ccnc2ccccc12 ?
## Result yes (1)

## Task Hello, I am checking results. What call was entered for Cn1cc(-c2csc(-c3cn(CCCN4CCCCC4)c4ccc(Br)cc34)n2)c2cccnc21 ?
## Result no (0)

For the next question, use this compound.
## Task Hello, I am checking results. What call was entered for Cn1c(=O)c2c(ncn2CC(=O)Nc2ccc(S(N)(=O)=O)cc2)n(C)c1=O ?
## Result no (0)

* * *

Overview of reported growth across a group of compounds:
# System: UACC-62 melanoma
# ASSAY_PROTOCOL: NCI-60 one-dose screen, 48 h (100 = growth as untreated, 0 = no growth, -100 = all killed)
# RUN_CONDITIONS: 10 µM unless noted
This is part of a sample that, as a whole, favours compounds with a hit. Of some 83,000 tested, about 20% had one in any assay.
Please reply with the bare figure in % and do not write the unit itself.

Completed entries (count: 4):
## Task Using the record for O=C1NC(c2ccc(Cl)c(Cl)c2)=C/C1=C\c1ccccc1 , report its growth.
## Result 86.7

## Task Using the record for CN(C)c1ccc(N)c2ccccc12 , report its growth.
## Result -6.64

## Task Using the record for COc1c(N)c2c(c([N+](=O)[O-])c1OC)C(=O)OC2 , report its growth.
## Result 102

## Task Using the record for O=C(/C=C/c1cccc2ccccc12)Nc1ncc(Cc2ccccc2)s1 , report its growth.
## Result 15.9

***
## Task Using the record for C(=C\c1c[nH]c2ccccc12)/c1ccc2ccccc2n1 , report its growth.
## Result 86.8

## Task Using the record for Cn1cc(-c2nc(-c3c[nH]c4ncccc34)cs2)c2cc(F)ccc21 , report its growth.
## Result 47.6

## Task Using the record for OCC1OC(n2cnc3c(Cl)ncnc32)CC1O (stereo not given) , report its growth.
## Result 101

## Task Using the record for CC(=O)O[C@H]1CC[C@]2(C)[C@H]3CC=C4[C@@H]5[C@H](C)[C@@H](C)CC[C@]5(C(=O)NCCNCCNCCN)CC[C@@]4(C)[C@]3(C)CC[C@H]2C1(C)C , report its growth.
## Result 91.7

## Task Using the record for Fc1ccc2[nH]cc(-c3nc(-c4c[nH]c5ncccc45)cs3)c2c1 , report its growth.
## Result 48.5

## Task Using the record for COc1cc(-c2cc(-c3nc4cc(Cl)c(Cl)cc4[nH]3)[nH]n2)cc(OC)c1OC , report its growth.
## Result 24.1

* * *

# System: SF-268 CNS
# ASSAY_PROTOCOL: NCI-60 one-dose screen, 48 h (100 = growth as untreated, 0 = no growth, -100 = all killed)
# RUN_CONDITIONS: 10 µM unless noted
This is part of a sample that, as a whole, favours compounds with a hit. Of some 83,000 tested, about 20% had one in any assay.
Each record is given true (1) if its reported growth is strictly below 80%. Records at or above 80% are given false (0).

As a guide, the following entries are already answered.
## Task Please indicate whether the reported growth of COc1ccc(-c2nc3ccccn3c2-c2nc3ccc(Cl)cc3[nH]2)cc1 is strictly below 80%.
## Result false (0)

## Task Please indicate whether the reported growth of O=[N+]([O-])c1ccc(N/N=C(\C(=N/Nc2ccc([N+](=O)[O-])cc2[N+](=O)[O-])c2ccccc2)c2ccccc2)c([N+](=O)[O-])c1 is strictly below 80%.
## Result false (0)

## Task Please indicate whether the reported growth of O=C(CI)Nc1ccc(O)c2ccccc12 is strictly below 80%.
## Result true (1)

## Task Please indicate whether the reported growth of COc1cccc(-c2nn(-c3ccccc3)cc2-c2ccnc(NCCCNS(=O)(=O)c3ccccc3)c2)c1 is strictly below 80%.
## Result true (1)

***
## Task Please indicate whether the reported growth of CCCCCCCC(=O)SCC/C=C/[C@@H]1CC(=O)NCc2cccc(n2)CN(Cc2ccc3ccccc3c2)CC(=O)N[C@@H](C(C)C)C(=O)O1 is strictly below 80%.
## Result true (1)

* * *

# Tested on: PC-3 prostate
# ASSAY_PROTOCOL: NCI-60 one-dose screen, 48 h
# RUN_CONDITIONS: 10 µM unless noted
This is part of a sample that, as a whole, favours compounds with a hit. Of some 83,000 tested, about 20% had one in any assay. Active and inactive are the calls of the source. Rule for the calls: active = growth percent below 10; inactive = the rest.
Result category, one only: T = active, F = inactive

## Task Hello, I am checking results. What call was entered for Cc1ccc(-c2ccc(Nc3ccccc3)nn2)cc1S(N)(=O)=O ?
## Result F

## Task Hello, I am checking results. What call was entered for c1ccc2[nH]c(-c3ccc(Nc4nc(N5CCCCC5)nc(N5CCOCC5)n4)cc3)nc2c1 ?
## Result F

## Task Hello, I am checking results. What call was entered for COc1cc2[nH]c(C(=O)c3cc(OC)c(OC)c(OC)c3)c(N)c2cc1C#CC1CC1 ?
## Result F

## Task Hello, I am checking results. What call was entered for Cc1cc(Cl)nc(N(CCCNc2ccnc3cc(Cl)ccc23)Cc2ccco2)n1 ?
## Result T
